// data source = patent US9957271B2

Reported values of Emax for individual entries
Molecular target: SIRT1 (Homo sapiens, UniProt Q96EB6)
Sequence (Q96EB6 1-747): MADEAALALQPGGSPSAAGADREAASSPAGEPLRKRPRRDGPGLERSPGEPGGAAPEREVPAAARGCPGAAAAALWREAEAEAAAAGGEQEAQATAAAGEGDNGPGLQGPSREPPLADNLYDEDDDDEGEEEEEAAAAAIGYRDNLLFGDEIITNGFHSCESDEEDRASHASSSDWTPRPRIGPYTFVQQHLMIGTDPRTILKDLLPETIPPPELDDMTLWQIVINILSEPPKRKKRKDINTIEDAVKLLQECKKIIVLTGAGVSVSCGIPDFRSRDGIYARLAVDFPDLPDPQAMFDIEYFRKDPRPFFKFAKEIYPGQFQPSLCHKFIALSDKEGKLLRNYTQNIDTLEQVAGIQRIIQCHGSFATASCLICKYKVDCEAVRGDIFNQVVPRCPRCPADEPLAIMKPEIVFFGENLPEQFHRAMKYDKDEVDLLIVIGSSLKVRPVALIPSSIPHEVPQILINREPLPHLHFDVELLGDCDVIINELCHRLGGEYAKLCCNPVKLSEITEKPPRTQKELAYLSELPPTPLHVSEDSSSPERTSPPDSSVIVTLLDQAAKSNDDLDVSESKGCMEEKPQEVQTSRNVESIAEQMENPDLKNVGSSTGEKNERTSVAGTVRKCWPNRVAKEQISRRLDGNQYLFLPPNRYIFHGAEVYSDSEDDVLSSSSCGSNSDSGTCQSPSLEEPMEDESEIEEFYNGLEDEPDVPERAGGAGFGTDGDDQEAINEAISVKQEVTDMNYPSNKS
Test: TAMRA based mass spectrometry assay of SIRT1 activity
Assay type: biochemical
Conditions: TAMRA peptide substrate; percent maximum fold activation; read-out: TAMRA % Fold Act
assay-readout: Emax

| molecule | observed |
| --- | --- |
| Cc1cc(C)nc(NC(=O)c2c(C)nc3c(C)cc(-c4ccccc4C(F)(F)F)nn23)c1 [Compound 429] | ≥ 350% |
| Cc1nn2ccc(-c3ccccc3C(F)(F)F)nc2c1NC(=O)c1ccccn1 [Compound 567] | < 350% |
| Cc1nc(C(=O)Nc2cnn3ccc(-c4ccccc4C(F)(F)F)nc23)c(C)s1 [Compound 526] | ≥ 350% |
| Cc1nn2ccc(-c3ccccc3C(F)(F)F)nc2c1C(=O)Nc1cccc(CN2CCOCC2)n1 [Compound 550] | ≥ 350% |
